Biological target: T1, PD-1-HIS (human, UniProt Q15116)
T1 construct: soluble extracellular domain; May be the same protein as m2; also called PD-1-HIS(tag); PD-1-His Tag (Sino Biological #10377-H08H-50)
T1 sequence (Q15116 25-167 limits assumed): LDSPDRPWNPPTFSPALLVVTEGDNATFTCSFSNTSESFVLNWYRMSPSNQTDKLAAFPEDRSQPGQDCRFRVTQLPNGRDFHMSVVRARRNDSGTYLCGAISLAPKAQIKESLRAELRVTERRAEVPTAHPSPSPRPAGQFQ
Assay: ELISA, supernatant of transfected HEK293 cells on PD-1-HIS(tag), OD 450 nm, average of two experiments
Endpoint: binding result

>>> assay_value("100388_C1VH2_100389_C1VK1 (antibody, V domains shown, Mouse variable regions; cloned into pFUSE-CHIg-mG1 (murine IgG1 Fc), expressed in HEK293; also called 388C12A) VH: EVQLQESGPELVKPGASVKIPCKASGYTFTDYNMDWVKQSHGKSLEWIGDIDPNNGGIIYNQKFKGKAALTVDKSSSTAYMELRSLTSEDTAVYYCARWRSSMDYWGQGTSVTVSS VL: DIVMTQSPSSLSASLGDRVTISCSASQDISSYLNWYQQKPDGTVKLLIYYTSSLHSGVPSRFSGSGSGTDYSLTISNLEPEDIATYYCQQYSELPWTFGGGTKLEIK")
"binds"
>>> assay_value("100392_C3VH7_100393_C3VK10 (antibody, V domains shown, Mouse variable regions; cloned into pFUSE-CHIg-mG1 (murine IgG1 Fc), expressed in HEK293) VH: EVQLQESGPGLVAPSQSLSITCTVSGFSLTSYGVDWVRQSPGKGLEWLGVIWGIGSTNYNSALKSRLSISKDNSKSQVFLKMNSLQSDDTAMYYCASDGFVYWGQGTLVTVSS VL: DIVMTQDELYNPVTSGESVSISCRSSKSLLYKDGKTYLNWFLQRPGQSPQVLIYFMSTRASGVSDRFSGSGSGTDFTLEISRVKAEDVGVYYCQQLVDFPFTFGSGTKLEIK")
"binds"
>>> assay_value("100244_C7VH10_100245_C8VK5 (antibody, V domains shown, Mouse variable regions; cloned into pFUSE-CHIg-mG1 (murine IgG1 Fc), expressed in HEK293) VH: EVQLQESGPELVRPGASVKMSCKASGYTFTSYWMHWVKQRPGQGLEWIGMIDPSNSETSLNQKFKDKATLNVDKSSKTAYMQLSSLTSEDSAVYYCARSRGNYAYDMDYWGQGTSVTVSS VL: DIVITQTTAIMSASPGEKVTLTCSASSSVSSNYLYWYQQRPGSSPKLWIYSTSNLASGVPARFSGSGSGTSYSLTISSMEAEDAASYFCHQWSSYPPTFGSGTKLEIK")
"binds"
